Target: T1, human NPR1 on HEK293/hNPR1.myc.DDK cells (0 hANP) (human, UniProt P16066 33-1061)
T1 sequence: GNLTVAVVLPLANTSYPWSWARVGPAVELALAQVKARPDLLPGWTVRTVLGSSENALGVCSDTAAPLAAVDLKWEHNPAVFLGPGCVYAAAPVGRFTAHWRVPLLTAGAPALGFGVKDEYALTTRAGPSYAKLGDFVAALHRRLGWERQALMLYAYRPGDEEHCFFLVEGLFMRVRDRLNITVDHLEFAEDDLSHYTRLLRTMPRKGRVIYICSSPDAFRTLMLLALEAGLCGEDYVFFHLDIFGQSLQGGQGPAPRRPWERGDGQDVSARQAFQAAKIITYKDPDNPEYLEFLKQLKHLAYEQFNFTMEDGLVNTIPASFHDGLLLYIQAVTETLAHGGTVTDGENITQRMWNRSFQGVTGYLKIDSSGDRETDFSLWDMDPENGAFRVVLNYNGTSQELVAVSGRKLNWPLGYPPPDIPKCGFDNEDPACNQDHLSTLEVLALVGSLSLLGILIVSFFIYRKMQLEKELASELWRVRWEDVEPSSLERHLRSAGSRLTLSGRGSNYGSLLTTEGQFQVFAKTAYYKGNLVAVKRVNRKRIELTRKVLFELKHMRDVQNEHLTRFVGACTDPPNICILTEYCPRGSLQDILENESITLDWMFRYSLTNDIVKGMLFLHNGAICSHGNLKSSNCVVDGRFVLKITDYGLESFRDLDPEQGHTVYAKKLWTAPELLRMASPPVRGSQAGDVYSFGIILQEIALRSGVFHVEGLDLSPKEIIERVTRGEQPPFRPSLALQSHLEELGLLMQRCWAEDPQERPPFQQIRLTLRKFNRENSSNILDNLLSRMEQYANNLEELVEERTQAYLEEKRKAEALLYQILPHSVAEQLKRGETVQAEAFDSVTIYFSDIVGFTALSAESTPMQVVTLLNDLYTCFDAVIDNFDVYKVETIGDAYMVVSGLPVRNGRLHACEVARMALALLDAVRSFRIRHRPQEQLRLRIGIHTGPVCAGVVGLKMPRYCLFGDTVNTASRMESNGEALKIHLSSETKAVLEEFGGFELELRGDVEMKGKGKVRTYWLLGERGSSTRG
Assay: cell-based or functional assay
Kindly state % Activation (vs ANP max), Expt 1 for each of the entries shown.
Please give the number followed by its unit.

Parameter requested: % Activation (vs ANP max), Expt 1. Apply to each item below.
1. mAb25497 (antibody, human IgG4, V domains shown) VH: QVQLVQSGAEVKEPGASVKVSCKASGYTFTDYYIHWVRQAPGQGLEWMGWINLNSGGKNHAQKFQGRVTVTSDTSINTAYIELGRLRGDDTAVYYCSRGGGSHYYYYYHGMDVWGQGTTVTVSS VL: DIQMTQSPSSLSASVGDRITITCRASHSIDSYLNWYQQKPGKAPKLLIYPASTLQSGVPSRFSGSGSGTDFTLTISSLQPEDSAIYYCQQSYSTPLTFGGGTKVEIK
2. mAb22035 (antibody, human IgG4, V domains shown) VH: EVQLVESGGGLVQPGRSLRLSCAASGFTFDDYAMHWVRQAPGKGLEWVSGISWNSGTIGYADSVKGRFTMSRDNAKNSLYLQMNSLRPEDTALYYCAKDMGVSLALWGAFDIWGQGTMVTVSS VL: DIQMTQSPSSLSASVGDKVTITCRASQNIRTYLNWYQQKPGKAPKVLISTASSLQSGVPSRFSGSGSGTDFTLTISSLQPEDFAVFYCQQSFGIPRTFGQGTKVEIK
3. mAb22809 (antibody, human IgG4, V domains shown) VH: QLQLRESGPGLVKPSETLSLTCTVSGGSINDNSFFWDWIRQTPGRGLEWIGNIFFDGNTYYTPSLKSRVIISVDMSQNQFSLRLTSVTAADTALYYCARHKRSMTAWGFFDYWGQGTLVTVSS VL: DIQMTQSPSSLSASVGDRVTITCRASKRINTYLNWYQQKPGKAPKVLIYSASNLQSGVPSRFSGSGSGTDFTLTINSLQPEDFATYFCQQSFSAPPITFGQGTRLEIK
4. mAb25491 (antibody, human IgG4, V domains shown) VH: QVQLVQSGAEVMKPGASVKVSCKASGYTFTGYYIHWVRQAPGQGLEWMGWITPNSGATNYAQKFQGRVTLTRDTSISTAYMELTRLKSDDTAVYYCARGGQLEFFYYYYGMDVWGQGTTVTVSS VL: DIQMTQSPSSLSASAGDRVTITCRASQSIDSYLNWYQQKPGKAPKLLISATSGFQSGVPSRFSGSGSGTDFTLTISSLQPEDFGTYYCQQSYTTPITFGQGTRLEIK

**Result**
["71.1%", "73.1%", "86.7%", "74.6%"]
